system: MS2 coat protein; assay: apparent KD of MS2 coat protein; higher = weaker reporter binding; conditions: Eterna round: R107; input ligand: theophylline 2 mM

# Sequence Content, Target Or Test System, apparent KD of MS2 coat protein / nM
records = [
    ("GGGUAAGAUCCGGAUACCAGCGAACAUGAGGAUCACCCAUGUGAAAUAAGAUAGACUAAACGCCCUUGGCAGCCGAAAUAGCGUU [Same State Theophylline B GF 4]", "MS2 coat protein", 48.9),
    ("GACAUGAGGAUCACCCAUGUACCGCGAGAAGGAGCGCGGAUAAACGCAGGUAGGUCGCUCGUGGGCUUUUAUUCAAUCGAAAGCU [Zaesar]", "MS2 coat protein", 165),
    ("UCGGGUUUGCGAAGGAGCGGGUAUGUUUUCUAGUGGAUCCUAACAUGAGGAUCACCCAUGUCCCAGGUAGGUCGCGCGGGUUUGG [12.W]", "MS2 coat protein", 168),
]

###

tested on: MS2 coat protein; assay: apparent KD of MS2 coat protein; designed switch direction (-1 OFF switch, 1 ON switch): 1; higher = weaker reporter binding; settings: input ligand: microRNA oligo, concentration not stated
Label yes when apparent KD of MS2 coat protein >= 0.1 µM; otherwise no.

# Sequence Content, Group Label
data = [
    ("GUGGUCAGACAUGAGGAUCACCCAUGUGGAAUAAAUAACGGACAGGAUAUCGAAUAUAGGAUAUACGAGAAGGGUUGAUUGGUG (Eterna round: R96, puzzle: Same State NG 3)", "no"),
    ("AUUAGUGGUGGAGGAUAUGGGAAAGGAAGUGUACUAGAAGGCCACCGCCCUCUAGCACAUGAGGAUCACCCAUGUAUAGAGCCC [PowerStrip SSNG 1.14] (Eterna round: R96, puzzle: Same State NG 1)", "no"),
    ("GCUAGAAAUAAAGCCAACAUGAGGAUCACCCAUGUAUGUUGGUAGGAUAUCGUUUGCAAAGCAAACGAGAAGGGCCAAACUAGC [Mat - Same State NG 3 - JL Mod - D20] (Eterna round: R96, puzzle: Same State NG 3)", "yes"),
    ("UAUGACUUACAAGGAUAUUAAUAACAUGAGGAUCACCCAUGUGGCUGUGAGAGUUAGAUAAGCUAUAAGAAGGUGUGUGUGUUU [JR_SSNG2_Sub094] (Eterna round: R96, puzzle: Same State NG 2)", "yes"),
    ("UCGAGCGUACUUGCAGACAUGAGGAUCACCCAUGUAAAUGGGAAGGAUAUGGUACCGUUUCGGUACCAGAAGGUCCUACGUGCU [salish99_SSNG3_r04_305] (Eterna round: R96, puzzle: Same State NG 3)", "no"),
]

###

# apparent KD of K4 kissing-loop reporter per entry
system: K4 kissing-loop RNA reporter; test: apparent KD of K4 kissing-loop reporter; higher = weaker reporter binding; details: Eterna round: R107; input ligand: theophylline 20 uM
Measured Metric: apparent KD of K4 kissing-loop reporter (nM)

# Sequence Content, Units Text, Recorded Measurement
measured = [
    ("GCAACUCUCAGUGAUGUUGAGUUAUCGGAAGGAGCGCGUGAAAACGCAGGUAGGUCGCCGAUACAAUGAGUUUCUCGUUGGUUGC [Arginine A K4 21]", "nM", 554),
    ("GGAUCCACCAGUGAUGUUGGAGAAAACUCUAAGGAUAUGACGAAAGUCAGAAGGUGGUAGACUGGACAAAGUCCGGUGGGAUCCA [FmnA10 U30+G78]", "nM", 406),
    ("UGAUACCAGACGGCCGCCACUCCCGCAGGUCAAAGACCUGCGAAGAUGGUUCUUCAGUGAUGUUGGAGGACCGGGUCUGGUAUCU [FiskerMod 23 - Jieux - Exclusion - Tryptophan B]", "nM", 140),
    ("UAAUAUAAUCUGUCGUUUACAAUAUUUAGUCAGGAUAUCGUAUAUUCGAGAAGGGACACUAUCUAGUGAUGUUAGAUAUUUCGUU [JR_ExcFMNA_Sub015]", "nM", 76.6),
    ("GAAUUAUGUAGAAGGAGCGUUAGAAGGUAUAGGUGCGAGUGAUGUUUGGACUUGUUAAUUUGACAGGUAGGUCGCUACAGAAGGA [KL-SSArg B19 #analogue]", "nM", 379),
    ("AAAUAAAGCAGUCACCCAGUGAUGUUGGAAGGAGCGUGCGAAAGCACAGGUAGGUCGCCGAUAAAGGACAAAGUCCGUGGCUGCA [#SwitchBubble 29 #K4Early]", "nM", 279),
]

###

test system: MS2 coat protein; test: apparent KD of MS2 coat protein; designed switch direction (-1 OFF switch, 1 ON switch): 1; higher = weaker reporter binding; conditions: input ligand: FMN 200 uM
Measured Metric: apparent KD of MS2 coat protein (nM)

# Sequence Content, Target Or Test System, Recorded Measurement
records = [
    ("ACCCAAAGUAUAUGGGAGCAAGCUUUUUAACAUGAGGAUCACCCAUGUACUCGUCUUAUAAGCAGUCGAAAGACUGC [Sensor 100 - 4] (Eterna round: R96, puzzle: Sensor for hsa-mir-208a)", "MS2 coat protein", 873),
    ("CCGAUUUAUGGAGGAUAUGGAGCCUUAUUGGCUCCAGAAGGCUAAUAACAUGAGGAUCACCCAUGUCGGCGGUCUAAUGACCGA [Eli NG1ss - 52] (Eterna round: R96, puzzle: Same State NG 1)", "MS2 coat protein", 39.2),
    ("ACAUGAGAGUUAGGAUAUCUUGUACCUACAUGUGACAUGAGGAUCACCCAUGUGGUAAGUAUGAGGGAGAAGGGACAGAUAUGU [Equivalence 44 - Jieux - Same State NG 2] (Eterna round: R96, puzzle: Same State NG 2)", "MS2 coat protein", 67.4),
    ("GUACAUAUUAUAGGAUAUCACGUCGAAUAGACGUGAGAAGGAUAAUCCCACAUGAAUAUUAAUACAUGAGGAUCACCCAUGUAC [SSNG1/18-A1] (Eterna round: R96, puzzle: Same State NG 1)", "MS2 coat protein", 42),
]

###

tested on: K4 kissing-loop RNA reporter; test: apparent KD of K4 kissing-loop reporter; higher = weaker reporter binding; conditions: Eterna round: R107; input ligand: none;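 further: bound reporter read as fluorescence of individual clusters on recovered sequencing chips by microscopy, with normalized cluster intensities fitted with a binding model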
# apparent KD of K4 kissing-loop reporter per entry

# Sequence Content, Target Or Test System, Units Text, apparent KD of K4 kissing-loop reporter
measured = [
    ("CAGCAGAGUGAUGUUCUGCUUACUGCGGAUACCAGCUUUGCCAGAGGCCCUUGGCAGCCGCACGGCUCAGUGAUGUUGGGUCACG [Same State Theophylline A GF 13]", "K4 kissing-loop RNA reporter", "nM", 361),
    ("CGCAGUGAUGUUGCGAGUUUAUUCAGGGAAGGAGCGCCACAGAUGGCAGGUAGGUCGCCCACGCAGUGAUGUUGUGUAUUCGGGU [Exclusion Arginine A GF 3]", "K4 kissing-loop RNA reporter", "nM", 127),
    ("AUAAUAUGAGUGAUGUUCAUGUAAGCUGAAGGAGCGGACGAAAGUCCAGGUAGGUCGCAGCGUUCCUUUACCUCAUGAGAAGGAG [KL_SSArg-A1 #analogue]", "K4 kissing-loop RNA reporter", "nM", 203),
    ("GAAUUAUGUAGAAGGAGCGUUAGAAGGUAUAGGUGUGAGUGAUGUUCGGAUUUGUUAAUUUGACAGGUAGGUCGCUACAGAAGGA [KL-SSArg B17 #analogue]", "K4 kissing-loop RNA reporter", "nM", 242),
    ("UGAUAGGACAGAAGGAGCGGAAGCUAGUCAAAGACUAGCACGUUAAUAACAGGAGUGAUGUUCCAGGUAGGUCGCUGUCCUAUCU [ArgBX 24 #SwitchBubble #StaticStem]", "K4 kissing-loop RNA reporter", "nM", 136),
    ("AGCGAUGUUUUCUCUAAGAGUGAUGUUUUUCGAGGACCGGUACGGCCGCCACUCGAAUAAAGUGUGCGGUAGUGAGCUGUUGACA [#18 K4 Tryptophan A Exclusion]", "K4 kissing-loop RNA reporter", "nM", 747),
    ("AAAUUUAAUAUAUUUAAUUAAUUAUGUGAUACCAGACAUUUAUAAGUCCCUUGGCAGCACUUUGCAGUGAUGUUGCUUAUAAUAA [JR_SSTheophyA_Sub014]", "K4 kissing-loop RNA reporter", "nM", 91.4),
    ("AAUAAGGUCGCCGAUACCAGCGCAGGCAGAGCAAAGCUCUGCCAAGUAGUGAUGUUACUGCGCCCUUGGCAGCGGUGGCACGACC [Omei KL Theo B SS C v3]", "K4 kissing-loop RNA reporter", "nM", 163),
    ("UGAUACCAGACGGCCGCCACUGGGACCGGGAGUGAUGUUCCAAAUAAAAGAAACUCGGCCGCCACUAGGACCGGGUCUGGUAUCU [TrypBX 30 #DoubleAptamer #SwitchBubble]", "K4 kissing-loop RNA reporter", "nM", 379),
    ("GGUUUAUAGGAGGAUACCAGUACGGAUAAAGUACGUUAAUAGUAGAGUGAUGUUCUAAAGUACCCUUGGCAGCUUAGAUUAAGUU [ExTheophylB.J]", "K4 kissing-loop RNA reporter", "nM", 106),
    ("UUAUAUUUCAGUGAUGUUGAAAAUAUAACAGAGGAUAUGCGUUUAAGCAGAAGGCUGAAAUACUAUACUUUAAUCUAUUAAAUUU [JR_Nu_SSFMNA_Sub027]", "K4 kissing-loop RNA reporter", "nM", 350),
]
